# Tested on: DU-145
# assaySummary: Cytotoxicity against human DU145 cells after 24 hrs by MTT assay
# Assay type: functional
# studyConditions: DU-145, 24 h, read-out: CD50 (the source's name)
Recorded CC50 for the following compounds

{"smilesRecord": "Oc1ccc(C#Cc2ccc(O)cc2)cc1", "CC50 [µM]": 46.7}
{"smilesRecord": "Oc1ccc(/C=C/c2cc(O)cc(O)c2)cc1", "CC50 [µM]": 92.2}
{"smilesRecord": "Oc1ccc(C#Cc2cc(O)cc(O)c2)cc1", "CC50 [µM]": 55.7}
{"smilesRecord": "Oc1cc(O)cc(C#Cc2cc(O)cc(O)c2)c1", "CC50 [µM]": 57}

* * *

# assaySummary: Ratio of CD50 for test compound to CD50 for RES against human MHRF cells after 48 hrs
# Format: ADME, cell-based

{"smilesRecord": "Oc1cc(O)cc(C#Cc2cc(O)cc(O)c2)c1", "selectivity ratio at 48 h": 0.5}
{"smilesRecord": "Oc1ccc(C#Cc2cc(O)cc(O)c2)cc1", "selectivity ratio at 48 h": 0.3}
{"smilesRecord": "Oc1ccc(C#Cc2ccc(O)cc2)cc1", "selectivity ratio at 48 h": 0.3}

* * *

Recorded selectivity ratio at 24 h for the following compounds
# assaySummary: Ratio of CD50 for test compound to CD50 for RES against human MHRF cells after 24 hrs
# Type: ADME, cell-based
measurementName: selectivity ratio at 24 h

{"smilesRecord": "Oc1ccc(C#Cc2cc(O)cc(O)c2)cc1", "observedResult": 0.5}
{"smilesRecord": "Oc1cc(O)cc(C#Cc2cc(O)cc(O)c2)c1", "observedResult": 1}
{"smilesRecord": "Oc1ccc(C#Cc2ccc(O)cc2)cc1", "observedResult": 0.5}

* * *

# assaySummary: Lipophilicity, log P of the compound
# Assay type: physicochemical
# studyConditions: octanol/water
Recorded logP for the following molecules

{"smilesRecord": "Oc1ccc(C#Cc2cc(O)cc(O)c2)cc1", "logP": 1.85}
{"smilesRecord": "Oc1ccc(C#Cc2ccc(O)cc2)cc1", "logP": 2.3}
{"smilesRecord": "Oc1ccc(/C=C/c2cc(O)cc(O)c2)cc1", "logP": 1.85}

* * *

Recorded CC50 at 72 h for the following molecules
# assaySummary: Cytotoxicity against human MHRF cells after 72 hrs by MTT assay
# Type: cell-based
# studyConditions: read-out: CD50

{"smilesRecord": "Oc1ccc(C#Cc2ccc(O)cc2)cc1", "CC50 at 72 h (µM)": 153}
{"smilesRecord": "Oc1ccc(/C=C/c2cc(O)cc(O)c2)cc1", "CC50 at 72 h (µM)": 32}
{"smilesRecord": "Oc1ccc(C#Cc2cc(O)cc(O)c2)cc1", "CC50 at 72 h (µM)": 175}
{"smilesRecord": "Oc1cc(O)cc(C#Cc2cc(O)cc(O)c2)c1", "CC50 at 72 h (µM)": 66.9}

* * *

# assaySummary: Cytotoxicity against human MHRF cells after 24 hrs by MTT assay
# Type: cell-based
# studyConditions: read-out: CD50

{"smilesRecord": "Oc1ccc(/C=C/c2cc(O)cc(O)c2)cc1", "scaleUnit": "µM", "CC50 at 24 h": 155}
{"smilesRecord": "Oc1ccc(C#Cc2cc(O)cc(O)c2)cc1", "scaleUnit": "µM", "CC50 at 24 h": 295}
{"smilesRecord": "Oc1ccc(C#Cc2ccc(O)cc2)cc1", "scaleUnit": "µM", "CC50 at 24 h": 299}
{"smilesRecord": "Oc1cc(O)cc(C#Cc2cc(O)cc(O)c2)c1", "scaleUnit": "µM", "CC50 at 24 h": 156}

* * *

# Test system: MDAH 2774
# assaySummary: Cytotoxicity against human MDAH 2774 cells after 48 hrs by MTT assay
# Format: functional
# studyConditions: MDAH 2774, 48 h, read-out: CD50 (the source's name)

{"smilesRecord": "Oc1ccc(C#Cc2cc(O)cc(O)c2)cc1", "CC50 (µM)": 26.4}
{"smilesRecord": "Oc1ccc(C#Cc2ccc(O)cc2)cc1", "CC50 (µM)": 10.5}
{"smilesRecord": "Oc1cc(O)cc(C#Cc2cc(O)cc(O)c2)c1", "CC50 (µM)": 21.5}
{"smilesRecord": "Oc1ccc(/C=C/c2cc(O)cc(O)c2)cc1", "CC50 (µM)": 23}

* * *

# assaySummary: Cytotoxicity against human MHRF cells after 48 hrs by MTT assay
# Type: cell-based
# studyConditions: read-out: CD50
Recorded CC50 at 48 h for the following compounds

{"compound": "Oc1ccc(/C=C/c2cc(O)cc(O)c2)cc1 [RESVERATROL]", "scaleUnit": "µM", "CC50 at 48 h": 50.9}
{"compound": "Oc1cc(O)cc(C#Cc2cc(O)cc(O)c2)c1", "scaleUnit": "µM", "CC50 at 48 h": 113}
{"compound": "Oc1ccc(C#Cc2ccc(O)cc2)cc1", "scaleUnit": "µM", "CC50 at 48 h": 194}
{"compound": "Oc1ccc(C#Cc2cc(O)cc(O)c2)cc1", "scaleUnit": "µM", "CC50 at 48 h": 198}

* * *

# System: T-24
# assaySummary: Cytotoxicity against human T24 cells after 72 hrs by MTT assay
# Assay type: functional
# studyConditions: T-24, 72 h, read-out: CD50 (the source's name)
Recorded CC50 for the following molecules

{"molecule": "Oc1cc(O)cc(C#Cc2cc(O)cc(O)c2)c1", "systemTested": "T-24", "CC50 [µM]": 20.1}
{"molecule": "Oc1ccc(/C=C/c2cc(O)cc(O)c2)cc1 [RESVERATROL]", "systemTested": "T-24", "CC50 [µM]": 22.7}
{"molecule": "Oc1ccc(C#Cc2cc(O)cc(O)c2)cc1", "systemTested": "T-24", "CC50 [µM]": 24.3}
{"molecule": "Oc1ccc(C#Cc2ccc(O)cc2)cc1", "systemTested": "T-24", "CC50 [µM]": 8.5}
